Could you please report measured RBA for the items listed next?
Target: Progesterone receptor (Rattus norvegicus) (UniProt Q63449)
Sequence (Q63449 whole entry): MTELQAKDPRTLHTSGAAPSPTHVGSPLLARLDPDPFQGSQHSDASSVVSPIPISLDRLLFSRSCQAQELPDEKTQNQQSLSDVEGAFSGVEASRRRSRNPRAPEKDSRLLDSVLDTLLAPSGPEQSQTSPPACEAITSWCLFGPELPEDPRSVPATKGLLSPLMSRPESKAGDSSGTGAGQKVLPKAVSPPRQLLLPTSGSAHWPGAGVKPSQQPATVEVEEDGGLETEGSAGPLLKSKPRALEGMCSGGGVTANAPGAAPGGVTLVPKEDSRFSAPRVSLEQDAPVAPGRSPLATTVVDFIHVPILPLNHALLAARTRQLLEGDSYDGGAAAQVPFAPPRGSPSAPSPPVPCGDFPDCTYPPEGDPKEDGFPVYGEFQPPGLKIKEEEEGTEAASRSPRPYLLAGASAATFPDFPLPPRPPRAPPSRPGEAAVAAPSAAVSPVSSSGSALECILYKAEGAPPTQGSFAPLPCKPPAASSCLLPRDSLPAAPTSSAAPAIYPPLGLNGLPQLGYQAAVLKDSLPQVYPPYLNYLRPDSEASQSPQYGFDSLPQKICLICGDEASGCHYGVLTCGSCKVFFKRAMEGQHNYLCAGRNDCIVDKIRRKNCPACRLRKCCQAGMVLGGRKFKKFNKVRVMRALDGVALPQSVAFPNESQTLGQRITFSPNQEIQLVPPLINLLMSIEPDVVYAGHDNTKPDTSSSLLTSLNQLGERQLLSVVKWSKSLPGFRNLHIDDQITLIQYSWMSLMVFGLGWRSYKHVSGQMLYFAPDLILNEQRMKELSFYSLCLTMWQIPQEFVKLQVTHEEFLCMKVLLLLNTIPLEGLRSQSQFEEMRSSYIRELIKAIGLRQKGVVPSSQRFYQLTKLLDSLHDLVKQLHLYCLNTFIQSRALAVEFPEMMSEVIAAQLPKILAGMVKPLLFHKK
Assay: Relative binding affinity against progesterone receptor determined in rat […] cytosol using [3H]DHT as ligand
Write the numeric value and follow it with the unit.

{"Molecule": "CC(=O)S[C@@H]1CC2=CC(=O)C=CC2(C)C2C=CC3(C)C(CC[C@@]34CCC(=O)O4)C21 (stereo partly drawn)", "RBA": "3.9%"}

For each of the items listed, what is its RBA?
1. CC(C)(C)C(=O)S[C@@H]1CC2=CC(=O)C=CC2(C)C2C=CC3(C)C(CC[C@@]34CCC(=O)O4)C21 (stereo partly drawn)
2. CC12CCC(=O)C=C1C=CC1C2C=CC2(C)C1C1CC1[C@@]21CCC(=O)O1 (stereo partly drawn)
3. CC12C=CC(=O)C=C1C=CC1C2C=CC2(C)C1C1CC1[C@@]21CCC(=O)O1 (stereo partly drawn)
4. CC(=O)S[C@@H]1CC2=CC(=O)C=CC2(C)C2C=CC3(C)C(C4CC4[C@@]34CCC(=O)O4)C21 (stereo partly drawn)
5. CC(=O)S[C@@H]1CC2=CC(=O)CCC2(C)C2C=CC3(C)C(CC[C@@]34CCC(=O)O4)C21 (stereo partly drawn)
6. CC12CCC(=O)C=C1[C@H]1C[C@H]1C1C2C=CC2(C)C1CC[C@@]21CCC(=O)O1 (stereo partly drawn)

Result:
1: 18%; 2: 210%; 3: 19%; 4: 23%; 5: 14%; 6: 6.7%

Task: Given the molecule CC(C)(C)C(=O)S[C@@H]1CC2=CC(=O)CCC2(C)C2C=CC3(C)C(CC[C@@]34CCC(=O)O4)C21 (stereo partly drawn) , what is its reported RBA?
Result: 38%

Value source: ChEMBL document CHEMBL1123888
